Test: Half life in C57BL/6 mouse at 10 mg/kg, iv measured for 24 hrs
Format: ADME, organism-based
Settings: in vivo
Measure: half-life
Answer with the figure and its unit, nothing else.

[Q] May I ask what half-life has been recorded for CCCCCCCCCCCCC/C=C/[C@@H](O)[C@H](CO[C@@H]1O[C@H](CO)[C@@H](O[C@@H]2O[C@H](CO)[C@H](O)[C@H](O[C@]3(C(=O)O)C[C@H](O)[C@@H](NC(=O)Cc4cccc([N+](=O)[O-])c4)C([C@@H](O)[C@H](O)CO)O3)[C@H]2O)[C@H](O)[C@H]1O)NC(=O)CCCCCCCCCCCCCCCCC (stereo partly specified) ?
[A] 49.3 h

The origin of these recorded values is ChEMBL document CHEMBL5543073.
